Source: patent US20260103465A1

target: GSK3b (GST-full length GSK3b) (Homo sapiens, UniProt P49841); construct: GST-full length GSK3b: [SignalChem G08-9G]; purchased SignalChem G08-9G; test: GSK3b TR-FRET kinase inhibition assay; assay type: biochemical; conditions: 1 mM ATP; Table 5; read-out: GSK3β TR-FRET 1 mM ATP Average IC50
Sequence (P49841 whole entry): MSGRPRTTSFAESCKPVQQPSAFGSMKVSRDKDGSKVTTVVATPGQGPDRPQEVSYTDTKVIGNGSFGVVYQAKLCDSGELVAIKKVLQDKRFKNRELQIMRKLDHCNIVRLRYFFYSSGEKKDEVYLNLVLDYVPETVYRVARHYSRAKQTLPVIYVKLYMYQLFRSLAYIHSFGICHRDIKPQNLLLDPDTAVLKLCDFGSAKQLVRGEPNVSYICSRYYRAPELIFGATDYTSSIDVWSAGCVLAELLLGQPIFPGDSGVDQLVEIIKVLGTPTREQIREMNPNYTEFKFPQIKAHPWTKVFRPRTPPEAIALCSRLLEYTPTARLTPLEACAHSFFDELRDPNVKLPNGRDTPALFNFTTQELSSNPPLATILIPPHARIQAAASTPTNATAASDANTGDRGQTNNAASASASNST
pIC50: −log10 of the molar value.
MEASUREMENT_NAME: pIC50

| MOLECULE | pIC50 |
| --- | --- |
| CC1(C)CC(=O)C2=C(Nc3ncc(F)c(C#N)c3[C@@]2(C)c2ccccc2)[C@@H]1F (single isomer, unassigned) [Compound 617B] | 6.00 to 7.00 |
| Cn1ncc2c3c(ncc21)NC1=C(C(=O)CC(C)(C)C1)C3(C)c1ccccc1 (single isomer, unassigned) [609A] | 4.70 to 5.30 |
| CNc1cnc2c(c1C#N)C(C)(c1ccccc1)C1=C(CC(C)(C)CC1=O)N2 (single isomer, unassigned) [610B] | 4.70 to 5.30 |
| CC1(C)CC(=O)C2=C(C1)Nc1ncc(F)c(C#N)c1C2(C)c1cccc(C(F)F)c1 (single isomer, unassigned) [634B] | ≥ 7.00 |
| CC1(C)CC(=O)C2=C(C1)Nc1ncc(C(F)(F)F)cc1C2(C)c1cccc(C(F)F)c1 (single isomer, unassigned) [646B] | 6.00 to 7.00 |

Item C=Cc1cnc2c(c1Br)C(C)(c1ccccc1)C1=C(CC(C)(C)CC1=O)N2 (single isomer, unassigned) [640A] with GSK3b (GST-full length GSK3b) (Homo sapiens, UniProt P49841) - pIC50? 4.70 to 5.30

// map C=C(C)c1cnc2c(c1C#N)C(C)(c1ccccc1)C1=C(CC(C)(C)CC1=O)N2 (single isomer, unassigned) [620B] to recorded pIC50 (system: GSK3b (GST-full length GSK3b) (Homo sapiens, UniProt P49841)) 4.70 to 5.30

* * *

molecular target: GSK3b (GST-full length GSK3b) (Homo sapiens, UniProt P49841); construct: GST-full length GSK3b: [SignalChem G08-9G]; purchased SignalChem G08-9G; assay: GSK3b TR-FRET kinase inhibition assay; assay type: biochemical; conditions: 1 mM ATP; Table 5; read-out: GSK3β TR-FRET 1 mM ATP Average IC50
MEASUREMENT_NAME: IC50

Observe how each entry below is paired with its result.
| MOLECULE | MEASUREMENT_NAME | REPORTED_VALUE |
| --- | --- | --- |
| CC1(C)CC(=O)C2=C(C1)Nc1ncc(C(F)F)c(C#N)c1C2(C)c1ccccc1 (single isomer, unassigned) [627A] | IC50 | 0.1 to 1 µM |
| COc1cnc2c(c1C1CC1)C(C)(c1ccccc1)C1=C(CC(C)(C)CC1=O)N2 (single isomer, unassigned) [626B] | IC50 | 1 to 5 µM |
| CC1(C)CC(=O)C2=C(C1)Nc1ncc(F)c(C#N)c1C2(C)c1cccc(C(F)F)c1 (single isomer, unassigned) [634A] | IC50 | 5 to 20 µM |

Below: the item to evaluate.
Given the molecule CC1(C)CC(=O)C2=C(C1)Nc1ncc(I)c(Br)c1C2(C)c1ccccc1 (single isomer, unassigned) [657B] , what is its reported IC50? 1 to 5 µM
